System: C. accolens KPL 1818
test_description: MIC/MLC assay against C. accolens KPL 1818
Format: cell-based
condition_info: THyex broth with 1% Tween 80
No end group written: not given here.
Hi there, I'd appreciate the recorded C. accolens KPL 1818 MIC for every entry that follows.
Numbers only, in micrograms per milliliter.

>>> reported("G15A*: core peptide mutant of mutacin 1140, Glycine 15 replaced by Alanine (FKSWSLCTPGCARTASFNSYCC; ends and bridges not checked; cysteine pairing not given here; UniProt O68586 42-63, looked up, variant G15A)")
1

Proceed to the following item.
Prompt: For the substance shown here, T14A: core peptide mutant of mutacin 1140, Threonine 14 replaced by Alanine (FKSWSLCTPGCARAGSFNSYCC; UniProt O68586 42-63, looked up, variant T14A) [Mutant T14A] , give the reported C. accolens KPL 1818 MIC.
Completion: 0.5

* * *

Tested on: S. aureus ATCC 25923
test_description: MIC/MLC assay against S. aureus
Assay type: cell-based, Staphylococcus aureus
condition_info: Table 11
No end group written: not given here.
quantity_kind: S. aureus ATCC 25923 MLC (micrograms per milliliter)
Numbers only, in micrograms per milliliter.

Example cases with answers are listed next.
>>> reported("S5G:T14G: core peptide mutant of mutacin 1140, positions 5, 14 replaced by Glycine and Glycine (FKSWGLCTPGCARGGSFNSYCC; ends and bridges not checked; cysteine pairing not given here; UniProt O68586 42-63, looked up, variant S5G T14G)")
16
>>> reported("G15A*: core peptide mutant of mutacin 1140, Glycine 15 replaced by Alanine (FKSWSLCTPGCARTASFNSYCC; ends and bridges not checked; cysteine pairing not given here; UniProt O68586 42-63, looked up, variant G15A)")
16

Proceed to the following item.
Prompt: S. aureus ATCC 25923 MLC of R13A:T14A: core peptide mutant of mutacin 1140, positions 13, 14 replaced by Alanine and Alanine (FKSWSLCTPGCAAAGSFNSYCC; UniProt O68586 42-63, looked up, variant R13A T14A) on S. aureus ATCC 25923?
Completion: 32

* * *

Tested on: C. accolens KPL 1818
test_description: MIC/MLC assay against C. accolens KPL 1818
Assay type: cell-based
condition_info: THyex broth with 1% Tween 80
No end group written: not given here.
Hi there, I'd appreciate the recorded C. accolens KPL 1818 MLC for every entry that follows.
Answers are plain numbers, in micrograms per milliliter.

>>> reported("R13A:T14A: core peptide mutant of mutacin 1140, positions 13, 14 replaced by Alanine and Alanine (FKSWSLCTPGCAAAGSFNSYCC; UniProt O68586 42-63, looked up, variant R13A T14A)")
0.5

Prompt: For the substance shown here, A12T:T14G: core peptide mutant of mutacin 1140, positions 12, 14 replaced by Threonine and Glycine (FKSWSLCTPGCTRGGSFNSYCC; ends and bridges not checked; cysteine pairing not given here; UniProt O68586 42-63, looked up, variant A12T T14G) , give the reported C. accolens KPL 1818 MLC.
Completion: 1

* * *

Hi there, I'd appreciate the recorded C. accolens KPL 1818 MLC for every entry that follows.
Tested on: C. accolens KPL 1818
test_description: MIC/MLC assay against C. accolens KPL 1818
Assay type: cell-based
condition_info: THyex broth with 1% Tween 80
No end group written: not given here.
Answers are plain numbers, in micrograms per milliliter.

>>> reported("G15A*: core peptide mutant of mutacin 1140, Glycine 15 replaced by Alanine (FKSWSLCTPGCARTASFNSYCC; ends and bridges not checked; cysteine pairing not given here; UniProt O68586 42-63, looked up, variant G15A)")
2

Provide the reported C. accolens KPL 1818 MLC of each entry below, same order.
1. S5A:A12S dehydrated: core peptide mutant of mutacin 1140, positions 5, 12 replaced by Alanine and Serine; dehydrated form (FKSWALCTPGCSRTGSFNSYCC; ends and bridges not checked; also: dehydrated form; UniProt O68586 42-63, looked up, variant S5A A12S)
2. T14G: core peptide mutant of mutacin 1140, Threonine 14 replaced by Glycine (FKSWSLCTPGCARGGSFNSYCC; not fully specified; ends and bridges not checked; UniProt O68586 42-63, looked up, variant T14G) [Mutant T14G]
3. T14A: core peptide mutant of mutacin 1140, Threonine 14 replaced by Alanine (FKSWSLCTPGCARAGSFNSYCC; UniProt O68586 42-63, looked up, variant T14A) [Mutant T14A]
4. S5G:T14G: core peptide mutant of mutacin 1140, positions 5, 14 replaced by Glycine and Glycine (FKSWGLCTPGCARGGSFNSYCC; ends and bridges not checked; cysteine pairing not given here; UniProt O68586 42-63, looked up, variant S5G T14G)

Completion:
[1, 0.5, 2, 1]
